molecular target: ΔCTD_Reg1 (human Regnase-1 amino acids 1 to 546, FLAG tag on the N-terminal side, BirA recognition sequence … (human)); assay: cell-based or functional assay
Sequence (Q5D1E8 1-546, stated change not applied): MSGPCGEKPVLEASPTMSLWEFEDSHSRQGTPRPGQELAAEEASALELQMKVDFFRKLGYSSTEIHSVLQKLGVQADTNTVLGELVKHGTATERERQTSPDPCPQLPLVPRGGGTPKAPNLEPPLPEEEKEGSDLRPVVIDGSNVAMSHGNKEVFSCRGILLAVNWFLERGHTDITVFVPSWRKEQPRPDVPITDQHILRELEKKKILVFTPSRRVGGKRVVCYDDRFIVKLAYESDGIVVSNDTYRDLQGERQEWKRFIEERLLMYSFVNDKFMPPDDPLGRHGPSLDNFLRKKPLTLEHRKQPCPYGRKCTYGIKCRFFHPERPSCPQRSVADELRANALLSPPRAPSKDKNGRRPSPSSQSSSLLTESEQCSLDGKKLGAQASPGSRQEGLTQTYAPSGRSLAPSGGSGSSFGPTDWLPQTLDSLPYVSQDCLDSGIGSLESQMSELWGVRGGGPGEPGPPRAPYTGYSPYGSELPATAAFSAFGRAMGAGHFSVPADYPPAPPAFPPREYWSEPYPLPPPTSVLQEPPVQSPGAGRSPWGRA
Positions of bridges follow the written chain, without caps; N, C: chain ends. Non-standard residues stand in square brackets, D forms with d. No end group written: not given here. NMeA = CN[C@@H](C)C(=O)O; dNMeA = CN[C@H](C)C(=O)O
endpoint label: IC50, phosphorylation by TBK1 (µM)

(a) [NMeA]GYANSWYNIWD (lactam N-12) [PP2]
(b) [NMeA]NSWYKIWGLD (lactam N-11) [PP21]
(c) [NMeA]WIWDFWNED (lactam N-10) [PP24]
(d) [NMeA]DIWFDYWDYD (lactam N-11) [PP18]
Query string: Rank the 4 binders shown above by IC50, phosphorylation by TBK1, smallest number first. # respond with the labels, arranged in the requested order
Result string: d, b, a, c
(d: 1.8 µM, b: 11.7 µM, a: 17.6 µM, c: 27.3 µM)

(I) [dNMeA]EDTPEDDHD (lactam N-10) [PP25]
(II) [NMeA]NFNSAYYRAIWD (lactam N-13) [PP7]
Query string: Record comparison, field IC50, phosphorylation by TBK1: mark the lower of I and II . State the label of the item chosen.
Result string: II
(II: 4.7 µM, I: 16.1 µM)

(A) [NMeA]NSWYRIWGLD (lactam N-11) [PP22]
(B) [dNMeA]TYGHSSWYKIWD (lactam N-13) [PP9]
Query string: For the pair A and B , which entry has the numerically smaller recorded IC50, phosphorylation by TBK1? Please reply using the label of the selected record.
Result string: B
